Test system: COLO-684
Assay: cells
Format: functional, cell-based, Homo sapiens
Settings: colo-684
Description: SANGER: Inhibition of human COLO-684 cell growth in a cell viability assay.
PROPERTY: IC50 (µM)
Give just the numeric value; µM need not be written.

The recorded IC50 for "CISPLATIN" is 29.1

----------
Test system: NCCIT
Experiment: SANGER: Inhibition of human NCCIT cell growth in a cell viability assay.
Assay type: functional, cell-based
Settings: Homo sapiens, NCCIT
PROPERTY: IC50

COc1cccc2c1C(=O)c1c(O)c3c(c(O)c1C2=O)C[C@@](O)(C(=O)CO)C[C@@H]3O[C@H]1C[C@H](N)[C@H](O)[C@H](C)O1: 20.1 nM
C#Cc1cccc(Nc2ncnc3cc(OCCOC)c(OCCOC)cc23)c1: > 2000 nM

The recorded IC50 for "CCN(CC)CCNC(=O)c1c(C)[nH]c(/C=C2\C(=O)Nc3ccc(F)cc32)c1C" is > 8000 nM

The recorded IC50 for "O=C(O)c1ccc(-c2c[nH]c3ncc(-c4ccccc4)cc23)cc1C1CCCC1" is > 16000 nM

----------
System: A-431;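 also: growth inhibition of A-431 cells, determined with a cell viability read-out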
Assay: cells
Type: functional, cell-based, Homo sapiens
Details: a-431
Description: SANGER: Inhibition of human A431 cell growth in a cell viability assay.
PROPERTY: IC50
Returns: string containing the numeric result and its unit.

The recorded IC50 for "CISPLATIN" is 572 µM

----------
Tested on: NCI-H2228;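 also: growth inhibition of human NCI-H2228 cells, read out by a cell viability assay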
Experiment: cells
Type: functional, cell-based, Homo sapiens
Conditions: nci-h2228
Description: SANGER: Inhibition of human NCI-H2228 cell growth in a cell viability assay.
PROPERTY: IC50 (nM)
Give just the numeric value; nM need not be written.

The recorded IC50 for "BLEOMYCIN" is 955

----------
System: NB12
Experiment: cells
Type: functional, cell-based, Homo sapiens
Conditions: nb12
Description: SANGER: Inhibition of human NB12 cell growth in a cell viability assay.
PROPERTY: pIC50
To interpret pIC50, take it as minus log10 of a concentration measured in moles per litre.

The recorded pIC50 for "BLEOMYCIN" is 4.08

----------
System: NTERA-2-cl-D1
Experiment: cells
Type: functional, cell-based, Homo sapiens
Conditions: ntera-2-cl-d1
Description: SANGER: Inhibition of human NTERA-S-cl-D1 cell growth in a cell viability assay.
PROPERTY: pIC50
To interpret pIC50, take it as minus log10 of a concentration measured in moles per litre.

Lab note: sequence "CISPLATIN" tested on NTERA-2-cl-D1; recorded pIC50 was 6.07

----------
Recorded IC50, one value per entry.
Test system: G-361
Assay: cells
Assay type: functional, cell-based, Homo sapiens
Conditions: Homo sapiens, G-361
Give just the numeric value; µM need not be written.

CO[C@H]1C[C@@H]2CC[C@@H](C)[C@@](O)(O2)C(=O)C(=O)N2CCCC[C@H]2C(=O)O[C@H]([C@H](C)C[C@@H]2CC[C@@H](OC(=O)C(C)(CO)CO)[C@H](OC)C2)CC(=O)[C@H](C)/C=C(\C)[C@@H](O)[C@@H](OC)C(=O)[C@H](C)C[C@H](C)/C=C/C=C/C=C/1C: 0.146

Consider the record given below.
The recorded IC50 for "O=C(O)c1ccc(-c2c[nH]c3ncc(-c4ccccc4)cc23)cc1C1CCCC1" is 3.72

----------
Tested on: RXF 393;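 also: growth inhibition of human RXF 393 cells, read out with a cell viability assay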
Experiment: cells
Assay type: functional, cell-based, Homo sapiens
Settings: Homo sapiens, RXF 393
Description: SANGER: Inhibition of human RXF393 cell growth in a cell viability assay.
pIC50: −log10 of the molar value.
PROPERTY: pIC50

Some entries whose results are on file:
CC[C@H](CO)Nc1nc(NCc2ccccc2)c2ncn(C(C)C)c2n1: < 4.80
CS(=O)(=O)c1ccc(C(=O)Nc2ccc(Cl)c(-c3ccccn3)c2)c(Cl)c1: < 5.00
CCN(CC)CCNC(=O)c1c(C)[nH]c(/C=C2\C(=O)Nc3ccc(F)cc32)c1C: < 5.10
COc1cc2c(Nc3ccc(NC(=O)c4ccccc4)cc3)ncnc2cc1OCCCN1CCOCC1: 5.46
N[C@@H](CSC(c1ccccc1)(c1ccccc1)c1ccccc1)C(=O)O: < 5.29
CN(C)C(=N)NC(=N)N: < 1.70
CO[C@H]1C[C@@H]2CC[C@@H](C)[C@@](O)(O2)C(=O)C(=O)N2CCCC[C@H]2C(=O)O[C@H]([C@H](C)C[C@@H]2CC[C@@H](OC(=O)C(C)(CO)CO)[C@H](OC)C2)CC(=O)[C@H](C)/C=C(\C)[C@@H](O)[C@@H](OC)C(=O)[C@H](C)C[C@H](C)/C=C/C=C/C=C/1C: 7.81
CCN(CC)CCCCNc1ncc2cc(-c3cc(OC)cc(OC)c3)c(NC(=O)NC(C)(C)C)nc2n1: < 5.70
C#Cc1cccc(Nc2ncnc3cc(OCCOC)c(OCCOC)cc23)c1: < 5.70

Consider the record given below.
The recorded pIC50 for "Cc1ccc(-c2c(C(=O)CCl)n(CCCO)c3ncnc(N)c23)cc1" is < 5.40

----------
System: FaDu;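 also: cell viability readout of growth inhibition in FaDu cells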
Experiment: cells
Format: functional, cell-based, Homo sapiens
Settings: Homo sapiens, FaDu
Description: SANGER: Inhibition of human FADU cell growth in a cell viability assay.
PROPERTY: IC50

CS(=O)(=O)c1ccc(C(=O)Nc2ccc(Cl)c(-c3ccccn3)c2)c(Cl)c1 [VISMODEGIB]: > 10 µM
COc1cc2c(Nc3ccc(NC(=O)c4ccccc4)cc3)ncnc2cc1OCCCN1CCOCC1: > 4 µM
N#Cc1c(O)c2c(-c3ccc(-c4ccccc4O)cc3)csc2[nH]c1=O: > 1.02 µM

Lab note: compound "Oc1ccc2ccccc2c1SSc1c(O)ccc2ccccc12" tested on FaDu; recorded IC50 was > 32 µM

Lab note: compound "Cc1cc([N+](=O)[O-])ccc1NS(=O)(=O)c1cc(Cl)ccc1Cl" tested on FaDu; recorded IC50 was 4.28 µM

----------
System: NCI-H2029;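 also: Read-out is a viability assay on the cultured cells, and IC50 is the concentration that suppresses cell growth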
Experiment: cells
Format: functional, cell-based, Homo sapiens
Conditions: Homo sapiens, NCI-H2029
Description: SANGER: Inhibition of human NCI-H2029 cell growth in a cell viability assay.
pIC50: −log10 of the molar value.
PROPERTY: pIC50

The recorded pIC50 for "Cc1cn(-c2cc(NC(=O)c3ccc(C)c(Nc4nccc(-c5cccnc5)n4)c3)cc(C(F)(F)F)c2)cn1" is < 5.70

----------
Test system: CCF-STTG1
Assay: cells
Assay type: functional, cell-based, Homo sapiens
Details: Homo sapiens, CCF-STTG1
Description: SANGER: Inhibition of human CCF-STTG1 cell growth in a cell viability assay.
PROPERTY: IC50 (µM)
Give just the numeric value; µM need not be written.

The recorded IC50 for O=C(O)c1ccc(-c2c[nH]c3ncc(-c4ccccc4)cc23)cc1C1CCCC1 [GSK-650394] is 12.6

----------
System: NCI-H322M;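 also: cell viability assay measuring inhibition of growth of human NCI-H322M cells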
Assay: cells
Format: functional, cell-based, Homo sapiens
Details: Homo sapiens, NCI-H322M
Description: SANGER: Inhibition of human NCI-H322M cell growth in a cell viability assay.
pIC50: −log10 of the molar value.
Recorded pIC50, one value per entry.

Cc1cc([N+](=O)[O-])ccc1NS(=O)(=O)c1cc(Cl)ccc1Cl: < 4.49
Nc1ccn([C@@H]2O[C@H](CO)[C@@H](O)C2(F)F)c(=O)n1: < 5.99
CC[C@H](CO)Nc1nc(NCc2ccccc2)c2ncn(C(C)C)c2n1: < 4.80
COc1cc(N2CCN(C)CC2)ccc1Nc1ncc2c(n1)N(C)c1ccccc1C(=O)N2C: < 5.10

The recorded pIC50 for "COc1cc(-c2nn([C@H]3CC[C@H](N4CCN(C(C)=O)CC4)CC3)c3ncnc(N)c23)ccc1NC(=O)c1cc2ccccc2n1C" is < 5.29

The recorded pIC50 for "CCC/C=C/C=C/C(=O)O[C@H]1/C(=C/C(=O)OC)C[C@H]2C[C@H]([C@@H](C)O)OC(=O)C[C@H](O)C[C@@H]3C[C@H](OC(C)=O)C(C)(C)[C@](O)(C[C@@H]4C/C(=C/C(=O)OC)C[C@H](/C=C/C(C)(C)[C@]1(O)O2)O4)O3" is < 8.10

----------
Tested on: YT
Assay: cells
Assay type: functional, cell-based, Homo sapiens
Conditions: Homo sapiens, YT
Description: SANGER: Inhibition of human YT cell growth in a cell viability assay.
Recorded IC50, one value per entry.

Some entries whose results are on file:
COc1cc(N2CCN(C)CC2)ccc1Nc1ncc2c(n1)N(C)c1ccccc1C(=O)N2C: 3480 nM
N[C@@H](CSC(c1ccccc1)(c1ccccc1)c1ccccc1)C(=O)O: > 5120 nM
CCC/C=C/C=C/C(=O)O[C@H]1/C(=C/C(=O)OC)C[C@H]2C[C@H]([C@@H](C)O)OC(=O)C[C@H](O)C[C@@H]3C[C@H](OC(C)=O)C(C)(C)[C@](O)(C[C@@H]4C/C(=C/C(=O)OC)C[C@H](/C=C/C(C)(C)[C@]1(O)O2)O4)O3: > 8 nM

The recorded IC50 for COc1cc2ncn(-c3cc(OCc4ccccc4C(F)(F)F)c(C(N)=O)s3)c2cc1OC [GW843682X] is > 256 nM

The recorded IC50 for "Oc1ccc2ccccc2c1SSc1c(O)ccc2ccccc12" is 1390 nM

The recorded IC50 for "COc1cccc2c1C(=O)c1c(O)c3c(c(O)c1C2=O)C[C@@](O)(C(=O)CO)C[C@@H]3O[C@H]1C[C@H](N)[C@H](O)[C@H](C)O1" is > 1020 nM

The recorded IC50 for "N#Cc1c(O)c2c(-c3ccc(-c4ccccc4O)cc3)csc2[nH]c1=O" is 46.7 nM

----------
System: CAL-12T
Assay: cells
Format: functional, cell-based, Homo sapiens
Conditions: cal-12t
Description: SANGER: Inhibition of human CAL-12T cell growth in a cell viability assay.
PROPERTY: IC50 (µM)
Give just the numeric value; µM need not be written.

The recorded IC50 for "CISPLATIN" is 625
